procedure text: yeast display, Sf9 membrane polyspecificity reagent, FACS + sequencing; frameworks hold sequencing errors
measure name: polyreactivity (PSR sort gate)

Completed entries (count: 5):
>  <seq string>
QVQLVESGGGLVQAGGSLRLSCAASGITFKYYAMGWYRQAPGKERELVAAIRGGRTYYADSVKGRFTISRDNAKNTVYLQMNSLKPEDTAVYYCNARYYQSGIKYNYWGQGTQVTVSS

>  <polyreactivity (PSR sort gate)>
high polyreactivity

$$$$
>  <seq string>
QDQLVESGGGLVQAGGSLRLSCAASGSTLVKYAMGWYRQAPGKERELVARITLNGGRTYYADSVKGRFTISRDNAKNTVYLQMNSLKPVDTAVYYCAKSLPHSTSRDYWGQGTQVTLSS

>  <polyreactivity (PSR sort gate)>
low polyreactivity

$$$$
>  <seq string>
QVQLVESGGGLVQAGGCLRLSCAASGSIFDHYVMGWYREAPGKERELVAAISSGDRPNYADSVKGRFTISRDNAKNPVYLQMNSLKPEETAVYYCAAVVHVSPYSYDYWGQGTQVTVSA

>  <polyreactivity (PSR sort gate)>
low polyreactivity

$$$$
>  <seq string>
QVQLVESGGGLVQAGGSLPLSCAASGRTINTNAMGWSRQAPGKERELVAAISGGGSTYADSVKGRFTISRDNAKNTVYLQMNSLKPEDTAVYYCAAQNVWIYGFWRDYWGQGTQVTVSS

>  <polyreactivity (PSR sort gate)>
low polyreactivity

$$$$
>  <seq string>
QVQLVESGGGLVQAGGSLHLSCAASGRTFVWYAMGWYRQAPGKERELVAAISWSGTSTYYADSVKGRFTNSRDYAKYNVYLQMNSLKPEDTAVYYCYEKYYYWGQGTQVTVSS

>  <polyreactivity (PSR sort gate)>
high polyreactivity

$$$$

Attention now turns to another entry.
INPUT: Answer with the recorded polyreactivity (PSR sort gate) of QVQLVESGGGLVQAGGSLRLSCAASGRTFGLYAMGWYRQAPGKERELVATITTSDIMTYYADSVKGRFTISRDNAKNTVYLQMNRLKPEDTAVYYCATGGYDDFSSRPANDYWGQGTQVTVSS only.
OUTPUT: low polyreactivity

----------
procedure text: yeast display, Sf9 membrane polyspecificity reagent, FACS + sequencing; frameworks hold sequencing errors
measure name: polyreactivity (PSR sort gate)

Completed entries (count: 5):
>  <seq string>
QVQLVESGGGLVQAGGSLRLSCAASGRIFRRYARGWYRQAPGKERELVATISRGGSNTSYADSVKGRFTISRDNAKNTVYLQMNSLKPEDTAVYYCAKGSVRYYVGYDYWGQGTQVSVSS

>  <polyreactivity (PSR sort gate)>
high polyreactivity

$$$$
>  <seq string>
QVQLVESGGGLVQAGGSLRLSCAASGRIIAKYAMGWYRQAPGKERELVAAINWGGGSTYYADSVKGRFTISRDNAKITVYLQMNSLKPEDTAVYYCNRTPRSKGNYWGQGTQVTVSS

>  <polyreactivity (PSR sort gate)>
high polyreactivity

$$$$
>  <seq string>
QVQLLESGGGLVQAGGSLRLSCAASGIIFRVYAMGWYRQAPGKERELVATITWSGGSTFYADSVKGRFTISRDNAKNTVYLQMNSLKPEDTAVYYCAKRGYVRSGLGRPYADDYWGQGTQVTVSS

>  <polyreactivity (PSR sort gate)>
low polyreactivity

$$$$
>  <seq string>
QVQLVESGGGLVQAGGSLRLSCAASGFTFRIYTMVWYRPAPRKERELVAAISSRGGSTYYADSVKGRFTISRDNAKNTVYLQMNSLKPEDTAVYYCAASGRVYSSGYDYWGQGTQVTVSS

>  <polyreactivity (PSR sort gate)>
high polyreactivity

$$$$
>  <seq string>
QVQLVESGAGLVQAGGSLRLSCAASGRILSHYAMGWYRQAPGKERELVATINSGGSTYYADSVKGRFTISRDNAKNTVYLQMNSLKPEDTAVYYCAVDYAVSYAGWVLRYDYWGQATQVTVSS

>  <polyreactivity (PSR sort gate)>
low polyreactivity

$$$$

INPUT: Answer with the recorded polyreactivity (PSR sort gate) of QVQLVESCRGLVQAGGSLRLICAASGLTFRYYSMGWYRQAPGKERELVASISWCGASTYYADSVKGRFTISRDNAKNTVYLQMISLKPEDTAVYYCNAGYSGSYDYWGQGTQVTVSS only.
OUTPUT: high polyreactivity
